B1: TPR t1 (parent)
chain: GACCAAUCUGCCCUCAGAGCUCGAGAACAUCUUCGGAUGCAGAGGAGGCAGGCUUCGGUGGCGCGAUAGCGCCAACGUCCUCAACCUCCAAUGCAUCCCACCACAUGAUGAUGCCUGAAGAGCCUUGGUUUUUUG

Variants of: B1
Assay: polymerase ribozyme fitness, log enrichment relative to wild type (log ratio); higher = more active; in vitro selection for triplet polymerase activity
# class assignment by measured polymerase ribozyme fitness (log ratio): bottom (below -4), middle (-4 to below -2), top (-2 or more)

**Query** Which category does the recorded polymerase ribozyme fitness (log ratio) put U33A C56G in?
**Result** bottom

Origin of values: the RNAGym collection of RNA variant scans (doi:10.1073/pnas.2313332121)
